target: BTK (Homo sapiens (Human)); experiment: IC50 against BTK; type: biochemical
Sequence (Q06187 whole entry, species assumed): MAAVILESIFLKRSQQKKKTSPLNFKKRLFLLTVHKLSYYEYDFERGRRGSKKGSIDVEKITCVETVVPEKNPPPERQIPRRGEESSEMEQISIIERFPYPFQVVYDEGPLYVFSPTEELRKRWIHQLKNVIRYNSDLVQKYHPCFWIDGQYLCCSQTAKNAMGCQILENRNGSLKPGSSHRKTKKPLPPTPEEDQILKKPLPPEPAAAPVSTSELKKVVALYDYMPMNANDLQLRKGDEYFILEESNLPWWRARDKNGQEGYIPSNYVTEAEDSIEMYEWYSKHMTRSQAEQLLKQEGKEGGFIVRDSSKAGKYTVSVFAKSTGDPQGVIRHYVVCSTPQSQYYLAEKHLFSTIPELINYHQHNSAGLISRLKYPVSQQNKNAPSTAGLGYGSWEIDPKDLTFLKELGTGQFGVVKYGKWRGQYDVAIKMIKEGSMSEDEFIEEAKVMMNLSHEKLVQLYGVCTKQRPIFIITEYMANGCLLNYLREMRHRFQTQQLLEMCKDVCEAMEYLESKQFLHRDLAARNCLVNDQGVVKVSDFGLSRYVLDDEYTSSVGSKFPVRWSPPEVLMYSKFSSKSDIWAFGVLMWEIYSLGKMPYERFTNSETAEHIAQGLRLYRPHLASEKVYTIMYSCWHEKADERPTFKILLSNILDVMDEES
measurement-label: IC50

Example compounds with recorded IC50:
• C=CC(=O)N1CCN(C(=O)c2cc(Sc3cnc(NC(=O)C4CC4)s3)c(C)cc2OC)CC1 [Compound 1] = 100 to 1000 nM
• C=CC(=O)N1CCN(C(=O)c2cc(Sc3cnc(NC(=O)c4cccc(CN(C)C)c4)s3)c(C)cc2OC)C[C@H]1CC [Compound 117] = 100 to 1000 nM
• COc1cc(C)c(Sc2cnc(NC(=O)C3CC3)s2)cc1C(=O)N1CCCN(C(=O)/C=C/CN(C)C)[C@H](C)C1 [Compound 94] = ≥ 10000 nM
• C=CC(=O)N1CCN(C(=O)c2cc(Sc3cnc(NC(=O)c4cccc(CN(C)C)c4)s3)c(C)cc2OC)CC1 [Compound 14] = 100 to 1000 nM
• C=CC(=O)N1CCCN(C(=O)c2cc(Sc3cnc(NC(=O)C4CC4)s3)c(C)cc2OC)[C@@H](C)C1 [Compound 72] = ≥ 10000 nM

Identify the reported IC50 for the following entry. C=CC(=O)N1C[C@H]2CC[C@@H](C1)N2C(=O)c1cc(Sc2cnc(NC(C)=O)s2)c(C)cc1OC [Compound 7]
10 to 100 nM

Query IC50 for C=CC(=O)N1CCCN(C(=O)c2cc(Sc3cnc(NC(=O)C4CC4)s3)c(F)cc2C)C[C@H]1C [Compound 83]
≥ 10000 nM

====

target: TXK (Homo sapiens (Human)); assay: IC50 against TXK; format: biochemical
measurement-label: IC50

Please supply the value of reported IC50 for the item C=CC(=O)N1CCCN(C(=O)c2cc(Sc3cnc(NC(=O)c4cccc(CN(C)C)c4)s3)c(C)cc2OC)C[C@H]1C
≥ 10000 nM

Note IC50 for the compound shown: C=CC(=O)N1CCCN(C(=O)c2cc(Sc3cnc(NC(=O)C4CC4)s3)c(C)cc2OC)C[C@H]1C(C)C
100 to 1000 nM

Answer with the recorded IC50 for the compound listed here: C=CC(=O)N1CCCN(C(=O)c2cc(Sc3cnc(NC(=O)C4CC4)s3)c(C)cc2OC)C[C@H]1C
100 to 1000 nM

Find the measured IC50 of C=CC(=O)N1CCN(C(=O)c2cc(Sc3cnc(NC(=O)C4CC4)s3)c(C)cc2OC)[C@H](C)C1 and report it.
10 to 100 nM

Please list IC50 recorded for the compound C=CC(=O)N1C[C@H]2CC[C@@H](C1)N2C(=O)c1cc(Sc2cnc(NC(C)=O)s2)c(C)cc1OC
10 to 100 nM

Report IC50, nothing else, for this compound: C=CC(=O)N1CCCN(C(=O)c2cc(Sc3cnc(NC(=O)N(C)C)s3)c(C)cc2OC)C[C@H]1C
≥ 10000 nM

Consider the compound C=CC(=O)N1CCN(C(=O)c2cc(Sc3cnc(NC(=O)C4CC4)s3)c(C)cc2C(F)(F)F)CC1 and give its recorded IC50.
100 to 1000 nM

====

# Lookup of reported bioavailability keyed by entry
experiment: Rat PO PK; conditions: in vivo, 6 mg/kg, PO 6 mpk
Return type: number; implicit unit %.

• C=CC(=O)N1CCN(C(=O)c2cc(Sc3cnc(NC(=O)C4CC4)s3)c(C)cc2OC)C[C@H]1C = 18.1
• C=CC(=O)N1CCCN(C(=O)c2cc(Sc3cnc(NC(=O)c4cccc(CN(C)C)c4)s3)c(C)cc2OC)CC1 = 0.4
• C=CC(=O)N1CCCN(C(=O)c2cc(Sc3cnc(NC(=O)c4ccc(F)c(CN(C)C)c4)s3)c(C)cc2OC)CC1 = 3.4
• C=CC(=O)N1CCCN(C(=O)c2cc(Sc3cnc(NC(=O)C4CC4)s3)c(C)cc2OC)C[C@H]1C = 12.5

Next item in the queue.
Given C=CC(=O)N1CCN(C(=O)c2cc(Sc3cnc(NC(=O)C4CC4)s3)c(C)cc2OC)CC1 , respond with its bioavailability.
10.9

====

biological target: TXK (Homo sapiens (Human)); assay: IC50 against TXK; type: biochemical; settings: ratio of TXK IC50 to ITK IC50
measurement-label: TXK/ITK
Enter the number alone.

Use the examples below as a reference point.
* C=CC(=O)N1CCN(C(=O)c2cc(Sc3cnc(Nc4ccccn4)s3)c(C)cc2C)CC1 | 4.6
* C=CC(=O)N1CCN(C(=O)c2cc(Sc3cnc(NC(=O)c4cnsc4)s3)c(C)cc2OC)CC1 | 33.582
* C=CC(=O)N1CCN(C(=O)c2cc(Sc3cnc(NC(C)=O)s3)c(C)cc2OC)C(C)(C)C1 | 1.9721

Fetch value of TXK/ITK on TXK (Homo sapiens (Human)) for C=CC(=O)N1CCN(C(=O)c2cc(Sc3cnc(NC(=O)c4ccccn4)s3)c(C)cc2OC)CC1 .
14.201

State TXK/ITK (TXK (Homo sapiens (Human))) of C=CC(=O)N1CCCN(C(=O)c2cc(Sc3cnc(NC(=O)c4cnsc4)s3)c(C)cc2OC)C[C@H]1C .
252.91

Report its TXK/ITK with TXK (Homo sapiens (Human)) as the test system: C=CC(=O)N1CCCN(C(=O)c2cc(Sc3cnc(NC(=O)c4cccc(CN[C@H](C)C(C)(C)C)c4)s3)c(C)cc2OC)CC1
168.17

Specify TXK/ITK for C=CC(=O)N1CCCN(C(=O)c2cc(Cc3cnc(NC(=O)C4CC4)s3)c(C)cc2C)C[C@H]1C , system TXK (Homo sapiens (Human)).
7.6

====

target: TXK (Homo sapiens (Human), UniProt P42681); experiment: IC50 against TXK; format: biochemical
Sequence (P42681 whole entry, species assumed): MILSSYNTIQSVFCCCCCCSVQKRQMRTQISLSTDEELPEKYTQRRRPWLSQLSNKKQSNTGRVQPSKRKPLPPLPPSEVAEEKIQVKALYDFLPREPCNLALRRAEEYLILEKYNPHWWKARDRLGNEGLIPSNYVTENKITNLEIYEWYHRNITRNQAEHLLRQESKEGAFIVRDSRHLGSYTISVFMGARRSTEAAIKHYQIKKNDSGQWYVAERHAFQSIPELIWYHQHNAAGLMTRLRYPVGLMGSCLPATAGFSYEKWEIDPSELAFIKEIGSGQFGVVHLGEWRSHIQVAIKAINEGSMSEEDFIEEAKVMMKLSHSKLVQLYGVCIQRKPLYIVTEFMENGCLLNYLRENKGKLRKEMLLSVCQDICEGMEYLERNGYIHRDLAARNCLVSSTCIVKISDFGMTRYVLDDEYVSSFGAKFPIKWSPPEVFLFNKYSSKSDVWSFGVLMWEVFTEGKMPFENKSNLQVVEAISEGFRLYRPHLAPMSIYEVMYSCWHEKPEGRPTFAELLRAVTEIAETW
measurement-label: IC50

* C=CC(=O)N1CCN(C(=O)c2cc(Sc3cnc(NC(=O)c4ccccn4)s3)c(C)cc2OC)CC1 | 100 to 1000 nM

Report IC50 for C=CC(=O)N1CCN(C(=O)c2cc(Sc3cnc(NC(=O)c4cccc(CN(C)C)c4)s3)c(C)cc2C)CC1
10 to 100 nM

Give IC50 for the following molecule: C=CC(=O)N1CCN(C(=O)c2cc(Sc3cnc(NC(=O)C4CC4)s3)ccc2OC)CC1
10 to 100 nM

Item C=CC(=O)N1[C@@H]2CC[C@H]1CN(C(=O)c1cc(Sc3cnc(NC(=O)c4ccsc4)s3)c(C)cc1OC)C2 : provide IC50
< 10 nM

====

test: Mouse PO PK; conditions: in vivo, 10 mg/kg, PO 10 mpk
measurement-label: bioavailability
Returns: string containing the number followed by the unit.

• C=CC(=O)N1CCCN(C(=O)c2cc(Sc3cnc(NC(=O)C4CC4)s3)c(C)cc2OC)C[C@H]1C = 9.8%
• C=CC(=O)N1CCN(C(=O)c2cc(Sc3cnc(NC(=O)C4CC4)s3)c(C)cc2OC)C[C@H]1C = 10.5%
• C=CC(=O)N1CCN(C(=O)c2cc(Sc3cnc(NC(=O)C4CC4)s3)c(C)cc2OC)CC1 = 20.1%

Provide measured bioavailability value, entry: C=CC(=O)N1CCN(C(=O)c2cc(Sc3cnc(NC(=O)c4ccsc4)s3)c(C)cc2OC)CC1
20%

====

target: JAK3 (Homo sapiens (Human), UniProt P52333); assay: IC50 against JAK3; format: biochemical
Sequence (P52333 whole entry, species assumed): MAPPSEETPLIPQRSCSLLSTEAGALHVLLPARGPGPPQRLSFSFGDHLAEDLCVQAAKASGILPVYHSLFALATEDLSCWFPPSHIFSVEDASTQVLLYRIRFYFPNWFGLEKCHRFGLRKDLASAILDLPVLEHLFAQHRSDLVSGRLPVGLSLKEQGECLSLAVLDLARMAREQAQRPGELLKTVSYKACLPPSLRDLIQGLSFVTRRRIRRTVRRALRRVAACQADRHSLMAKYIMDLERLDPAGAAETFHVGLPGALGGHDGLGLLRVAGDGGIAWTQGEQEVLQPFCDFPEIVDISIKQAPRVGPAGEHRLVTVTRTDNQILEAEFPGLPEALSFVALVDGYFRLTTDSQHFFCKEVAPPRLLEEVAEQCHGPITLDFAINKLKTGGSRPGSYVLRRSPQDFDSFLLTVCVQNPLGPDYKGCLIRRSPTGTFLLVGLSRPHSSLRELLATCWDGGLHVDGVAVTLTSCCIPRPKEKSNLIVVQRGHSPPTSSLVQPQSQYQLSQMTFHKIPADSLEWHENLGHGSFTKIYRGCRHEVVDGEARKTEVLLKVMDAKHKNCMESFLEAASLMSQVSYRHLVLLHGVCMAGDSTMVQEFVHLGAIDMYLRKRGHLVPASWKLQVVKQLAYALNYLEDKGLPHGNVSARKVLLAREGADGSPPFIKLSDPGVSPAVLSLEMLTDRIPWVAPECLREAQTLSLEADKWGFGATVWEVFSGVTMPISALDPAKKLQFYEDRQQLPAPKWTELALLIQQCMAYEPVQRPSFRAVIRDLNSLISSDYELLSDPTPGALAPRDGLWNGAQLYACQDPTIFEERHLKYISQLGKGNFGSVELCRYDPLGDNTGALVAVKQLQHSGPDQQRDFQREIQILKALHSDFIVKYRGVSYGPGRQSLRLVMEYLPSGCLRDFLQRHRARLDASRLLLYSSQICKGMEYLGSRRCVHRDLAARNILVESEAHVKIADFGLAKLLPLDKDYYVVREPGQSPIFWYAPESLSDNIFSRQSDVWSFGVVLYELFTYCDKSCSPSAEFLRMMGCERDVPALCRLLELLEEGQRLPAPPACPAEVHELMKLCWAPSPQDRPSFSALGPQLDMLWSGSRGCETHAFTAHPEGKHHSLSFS
Listed here: items and their measured IC50.

Known results for compounds:
* C=CC(=O)N1CCN(C(=O)c2cc(Sc3cnc(NC(=O)C4CC4)s3)c(C)cc2Cl)C[C@H]1CC [Compound 99] | 100 to 1000 nM
* C=CC(=O)N1CCCN(C(=O)c2cc(Sc3cnc(NC(=O)c4cnsc4)s3)c(C)cc2OC)C[C@H]1C [Compound 93] | ≥ 10000 nM

Give me measured IC50, please, for this compound: C=CC(=O)N1CCCN(C(=O)c2cc(Sc3cnc(NC(=O)C4CC4)s3)c(C)cc2C(F)(F)F)C[C@H]1C [Compound 70]
≥ 10000 nM

Give reported IC50 value for C=CC(=O)N1CC[C@H](N(C)C(=O)c2cc(Sc3cnc(NC(C)=O)s3)c(C)cc2OC)C1 [Compound 30]
1000 to 10000 nM

Dear colleague, please send me the reported IC50 for C=CC(=O)N1CCCN(C(=O)c2cc(Sc3cnc(NC(=O)c4ccsc4)s3)c(C)cc2OC)C[C@H]1CC [Compound 120] when you can.
1000 to 10000 nM

Output IC50 of C=CC(=O)N1CC[C@H](N(C)C(=O)c2cc(Sc3cnc(NC(=O)C4CC4)s3)c(C)cc2OC)C1 [Compound 29]
100 to 1000 nM

For the compound C=CC(=O)N1CCCN(C(=O)c2cc(Sc3cnc(NC(=O)C4CC4)s3)c(C)cc2OC)[C@@H](C)C1 [Compound 72] , give its reported IC50.
≥ 10000 nM

Give the reported value of IC50 for this record: C=CC(=O)N1CCN(C(=O)c2cc(Sc3cnc(NC(=O)C4CC4)s3)c(C)cc2OC)C(C)(C)C1 [Compound 15]
10 to 100 nM
